Tested on: PA-1
PROTOCOL TEXT: Primary qHTS to identify gynecologic anti-cancer compounds using libraries of approved drugs and bioactive compounds (AID 1345084); further: nearly all actives have a fitted effect of over 55% in size; further: potency means the concentration at half of the fitted maximal effect
EXPERIMENTAL CONTEXT: Gynecologic cancer cell panel viability, ATPlite luminescence, 48 h; series mostly up to 57.5 µM
Results filed as inconclusive are left out. Activity calls are given as the source filed them. The call rests on the fitted dose curve; in most records, active means well fitted cell-killing curve with a large enough effect; inconclusive means small, poorly fitted or top-dose-only effect, or effect the other way; inactive means flat fitted curve, though single readings scatter.
REPORTED METRIC: Potency

COMPOUND	TARGET UNDER TEST	REPORTED METRIC	MEASURED
CCCN(CCC)[C@@H]1CCc2ccc3[nH]c(C#N)cc3c2C1	PA-1	Potency	inactive
CCOC(=O)c1ccc(-c2ccc(OC(=O)N(C)Cc3cccc(-c4ccncc4)c3)cc2)cc1	PA-1	Potency	inactive
C#CC1(O)CCC2C3CCC4=CC(=O)CCC4=C3C=CC21C (stereo not drawn)	PA-1	Potency	11.2 µM (active)
Cc1ccccc1C1=CCN(C)CC1	PA-1	Potency	inactive
C=CCN1CC[C@]23c4c5ccc(O)c4O[C@H]2[C@@H](O)CC[C@@]3(O)[C@H]1C5	PA-1	Potency	inactive
CCCCCn1cc(C(=O)Cc2ccccc2OC)c2ccccc21	PA-1	Potency	inactive
COc1ccc(C23CCC(=O)C=C2N(C)CC3)cc1OC (stereo not drawn)	PA-1	Potency	inactive
Cc1c(N2C(=O)[C@@H]3[C@H](O)CCN3C2=O)ccc(C#N)c1Cl	PA-1	Potency	inactive
C[C@]12CC[C@H](O)C[C@@]1(O)CC[C@@H]1[C@@H]2CC[C@]2(C)[C@@H](c3ccc(=O)oc3)CC[C@]12O	PA-1	Potency	inactive
CC(=O)O[C@H]1C(=O)[C@]2(C)C(O)C[C@H]3OC[C@@]3(OC(C)=O)[C@H]2[C@H](OC(=O)c2ccccc2)[C@]2(O)C[C@H](O)C(C)=C1C2(C)C (stereo partly drawn)	PA-1	Potency	inactive
CCOP(=O)(OCC)Oc1ccc2c(C)cc(=O)oc2c1	PA-1	Potency	inactive
NCCCCCNC1(c2ccccc2)CCCCC1	PA-1	Potency	inactive
C[C@]12CC[C@@H](O[C@@H]3O[C@H](CO)[C@@H](O)[C@H](O)[C@H]3O)C[C@@]1(O)CCC1C2CC[C@]2(C)[C@@H](C3=CC(=O)OC3)CC[C@]12O (stereo partly drawn)	PA-1	Potency	0.355 µM (active)
C=CC(C)(C)c1[nH]c2c(CC=C(C)C)cc(CC=C(C)C)cc2c1C[C@@H]1NC(=O)[C@H](C)NC1=O	PA-1	Potency	inactive
CC1CCCCCC(=O)c2c(O)cc(O)cc2CC(=O)O1 (stereo not drawn)	PA-1	Potency	inactive
CCN1C[C@]2(COC)CC[C@H](O)[C@@]34C5C[C@@H]6[C@@H](OC)C[C@@](OC(C)=O)(C5[C@@H]6OC(C)=O)[C@H]([C@H](OC)C23)[C@@H]14 (stereo partly drawn)	PA-1	Potency	inactive
NC(=O)[C@@H](CC1CC1)[C@@H](CCC(F)(F)F)C(=O)N[C@H]1N=C(c2ccccc2)c2cccc(F)c2NC1=O	PA-1	Potency	inactive
CO[C@H]1C[C@H](O[C@H]2CC[C@]3(C=O)[C@H]4CC[C@]5(C)[C@@H](C6=CC(=O)OC6)CC[C@]5(O)[C@@H]4CC[C@]3(O)C2)O[C@H](C)[C@H]1O	PA-1	Potency	0.141 µM (active)
CCCCN1[C@@H]2CC[C@H]1CC(OC(c1ccc(F)cc1)c1ccc(F)cc1)C2 (stereo partly drawn)	PA-1	Potency	14.1 µM (active)
CC1(C)C(=O)N(c2ccc(C#N)c(C(F)(F)F)c2)C(=S)N1c1ccc(C(N)=O)c(F)c1	PA-1	Potency	inactive
CC(=O)O[C@H]1CC[C@@]2(CI)C(=CC[C@@H]3[C@@H]2CC[C@]2(C)C(=O)CC[C@@H]32)C1	PA-1	Potency	inactive
CCC1NC(=O)C2C(Cl)C(Cl)CN2C(=O)C(CC)NC(=O)CC(c2ccccc2)NC(=O)C(CO)NC1=O (stereo not drawn)	PA-1	Potency	inactive
CN1C2CCC1CC(OC(=O)N1Cc3ccccc3NC1=O)C2 (stereo not drawn)	PA-1	Potency	inactive
CC(=O)N1N=C(c2ccc(N)cc2)c2cc3c(cc2C[C@H]1C)OCO3	PA-1	Potency	inactive
COC1CC(OC2CCC3(C=O)C(CCC4C3CCC3(C)C(C5=CC(=O)OC5)CCC43O)C2)OC(C)C1O (stereo not drawn)	PA-1	Potency	0.199 µM (active)
COc1cc(O)c2c(c1)/C=C/C[C@@H](O)[C@@H](O)C(=O)CCC[C@H](C)OC2=O	PA-1	Potency	inactive
CO/C1=C\C(C)=C\[C@@H](C)[C@@H](O)[C@@H](C)C/C(C)=C/C=C/[C@H](OC)[C@@H]([C@@H](C)[C@@H](O)[C@H](C)[C@@]2(O)C[C@@H](O)[C@H](C)[C@@H](C(C)C)O2)OC1=O	PA-1	Potency	0.0891 µM (active)
Cc1[nH]c2ccc(Cl)cc2c1CCN(C)C	PA-1	Potency	inactive
